Biological target: 5-Lipoxygenase (Homo sapiens)
Sequence (P09917 whole entry): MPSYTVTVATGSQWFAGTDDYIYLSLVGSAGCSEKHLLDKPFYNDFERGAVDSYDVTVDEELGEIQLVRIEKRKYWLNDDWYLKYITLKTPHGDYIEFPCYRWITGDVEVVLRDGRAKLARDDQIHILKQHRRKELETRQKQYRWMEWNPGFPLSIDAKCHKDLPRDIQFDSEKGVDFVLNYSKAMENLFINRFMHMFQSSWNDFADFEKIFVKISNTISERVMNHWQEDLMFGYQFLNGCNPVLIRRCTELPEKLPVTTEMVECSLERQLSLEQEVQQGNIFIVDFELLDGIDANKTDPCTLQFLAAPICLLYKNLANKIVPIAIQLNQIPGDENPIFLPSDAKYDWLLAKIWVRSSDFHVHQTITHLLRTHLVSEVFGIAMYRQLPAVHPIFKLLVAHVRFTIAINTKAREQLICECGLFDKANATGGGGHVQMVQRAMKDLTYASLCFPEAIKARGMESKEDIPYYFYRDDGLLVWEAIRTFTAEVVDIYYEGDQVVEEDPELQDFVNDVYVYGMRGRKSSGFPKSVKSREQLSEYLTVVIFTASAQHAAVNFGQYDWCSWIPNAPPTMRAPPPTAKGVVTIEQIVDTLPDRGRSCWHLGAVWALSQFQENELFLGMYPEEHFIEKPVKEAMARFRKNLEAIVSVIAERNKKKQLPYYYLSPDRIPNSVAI
Assay: Inhibition of calcium ionophore A23187-induced LTB4 biosynthesis in human whole blood (5-Lipoxygenase Inhibitory Activity)
Conditions: human heparinized whole blood, LTB4 by radioimmunoassay, A23187 8.3 μM, 15 min preincubation at 37° C.
Description: Inhibition of leukotriene biosynthesis was evaluated in an assay, involving calcium ionophore-induced LTB4 biosynthesis expressed human whole blood. […] The methanol extract was analyzed for LTB4 using a commercially available radioimmunoassay.
RECORDED_ENDPOINT: IC50 (nM)

INSERT INTO results (compound, target_of_assay, units_of_measure, value_observed) VALUES
  ('CC(/C=C/c1ccc(Oc2ccc(F)cc2)o1)N(O)C(N)=O (stereo not shown)', '5-Lipoxygenase (Homo sapiens)', 'nM', 160);
